Where these numbers come from: PubChem BioAssay (NCI)

# Test system: SW-620 colon
# ASSAY_COMMENT: NCI tumour cell line growth inhibition, 48 h; in the data active = GI50 below about 0.43 µM; inactive = the rest
Classes used: 1.0 = active, 0.0 = inactive

>>> qualitative_label("CNc1ccc(CSc2ccc(C)cc2)cc1")
0.0
>>> qualitative_label("COc1cc(/C=C/C(=O)/C=C/c2ccc(-n3ccnc3)cc2)ccc1O")
0.0
>>> qualitative_label("COc1ccc(C2CC(c3cccc(Nc4ccncc4)c3)=NN2c2ccccc2)cc1 (stereo not given)")
0.0
>>> qualitative_label("O=C(NCCNC1=CC(=O)c2nc3ccccc3c3ccnc1c23)c1cnccn1")
0.0
>>> qualitative_label("COc1ccc(C2=NOC3=c4ccccc4=CSC3=C2c2ccccc2)cc1")
0.0
>>> qualitative_label("Nc1nc2c([nH]1)c1[nH]c3ccccc3c1c1[nH]c3ccccc3c21")
0.0
>>> qualitative_label("COc1cc(-c2ccc[nH]2)[nH]c1/C=C1\\N=C(C)C(C(=O)NC(C)C)=C1C")
0.0
>>> qualitative_label("COc1ccccc1CNCCCN1C(=O)c2ccc3c4c(ccc(c24)C1=O)C(=O)N(CCCNCCCCN)C3=O")
1.0
>>> qualitative_label("Nc1c([N+](=O)[O-])ncn1C1OC(CO)C(O)C1O (stereo not given)")
0.0
>>> qualitative_label("c1ccc(-c2nc3ccccc3[nH]2)c(OCCCCCOc2ccccc2-c2nc3ccccc3[nH]2)c1")
0.0
